Target: T1, PhoEF1A R132A•GTP•PfuPelota complex (Pyrococcus horikoshii | Pyrococcus …, UniProt O59153 1-428, R132A)
T1 construct: elongation factor aEF1A of Pyrococcus horikoshii (PhoEF1A); complex of the EF1A mutant, GTP and PfuPelota; also called R132(R140)A; P. horikoshii aEF1A-R132A
T1 sequence 1: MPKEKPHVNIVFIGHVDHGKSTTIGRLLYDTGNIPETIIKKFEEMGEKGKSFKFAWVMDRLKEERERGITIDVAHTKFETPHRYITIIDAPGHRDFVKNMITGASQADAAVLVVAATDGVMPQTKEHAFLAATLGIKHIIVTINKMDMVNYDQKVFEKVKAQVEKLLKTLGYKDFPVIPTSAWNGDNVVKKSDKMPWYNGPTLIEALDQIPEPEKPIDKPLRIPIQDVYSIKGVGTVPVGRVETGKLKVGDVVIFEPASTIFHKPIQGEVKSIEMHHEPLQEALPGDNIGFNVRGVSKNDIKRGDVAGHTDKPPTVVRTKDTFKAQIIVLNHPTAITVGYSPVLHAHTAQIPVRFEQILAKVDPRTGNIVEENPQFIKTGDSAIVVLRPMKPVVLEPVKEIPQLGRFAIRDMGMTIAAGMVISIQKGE
T1 sequence 2: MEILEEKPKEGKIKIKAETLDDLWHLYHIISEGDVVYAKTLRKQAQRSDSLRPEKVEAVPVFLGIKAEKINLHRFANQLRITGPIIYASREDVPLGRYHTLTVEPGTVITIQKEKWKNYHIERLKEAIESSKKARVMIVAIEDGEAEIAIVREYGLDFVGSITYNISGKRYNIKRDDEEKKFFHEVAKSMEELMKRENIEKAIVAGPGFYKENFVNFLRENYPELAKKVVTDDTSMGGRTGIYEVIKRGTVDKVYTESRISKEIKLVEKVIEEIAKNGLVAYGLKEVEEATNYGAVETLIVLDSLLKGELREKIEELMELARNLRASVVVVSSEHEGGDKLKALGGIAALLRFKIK
Assay: fluorescence polarisation; FITC-labeled PhoP1C14 peptide (50 nM) mixed with 0-160 µM of the complex of each PhoEF1A mutant, GTP and PfuPelota; 20 mM HEPES-KOH pH 7.6, 10 mM MgCl2, 150 mM KCl, 0.1 mg/ml BSA; 25 °C; nonlinear regression, one site specific binding (GraphPad Prism 6); average of three replicates
Conditions: both partners purified
Primed or numbered codes have the meaning given here. Where no end group is shown, it is not given here. FITC′ = fluorescein isothiocyanate label

Binder	Unit Label	Kd
{FITC′}-SEEEALAGLSALFG (also called FITC-labeled peptide of PhoP1C14; source: synthetic peptide (Hokkaido System Science Co., Ltd)) [FITC-labeled C-terminal 14-mer peptide of P. horikoshii aP1 (PhoP1C14)]	µM	87.8
